# Tested on: W2
# ASSAY_EXPLANATION: qHTS profiling for inhibitors of Plasmodium falciparum proliferation (AID 504749); further: nearly all actives have a fitted effect of over 60% in size
# STUDY_CONDITIONS: P. falciparum in erythrocytes, SYBR Green DNA, 72 h; series mostly up to 28.7 µM
Records with an inconclusive call do not appear. The source made the active and inactive calls. The call rests on the fitted dose curve; in most records, active means well fitted inhibition curve with a large enough effect; inconclusive means small, poorly fitted or top-dose-only effect; inactive means flat fitted curve, though single readings scatter. Peptide text beside a SMILES is read from it.
Outcome codes: 1 = active, 0 = inactive

[[record]]
compound = "CNC[C@H](O)c1ccc(O)c(O)c1"
label = 0

[[record]]
compound = "CN(C)c1ccc2nc3ccc(=[N+](C)C)cc-3sc2c1"
label = 1

[[record]]
compound = "COC(=O)[C@H](Cc1ccccc1)NC(=O)[C@@H](N)CC(=O)O (H-Asp-Phe-OMe)"
label = 0

[[record]]
compound = "CN(c1nccc(=O)[nH]1)C1CCN(c2nc3ccccc3n2Cc2ccc(F)cc2)CC1"
label = 1

[[record]]
compound = "O=C(NC(Cc1cc(=O)[nH]c2ccccc12)C(=O)O)c1ccc(Cl)cc1 (configuration not stated)"
label = 0

[[record]]
compound = "CN1C(C(=O)Nc2ccccn2)=C(O)c2sccc2S1(=O)=O"
label = 0

[[record]]
compound = "O=C(O)CCNC(=O)c1ccc(N=Nc2ccc(O)c(C(=O)O)c2)cc1"
label = 0

[[record]]
compound = "CCCCCCCCOc1ccccc1C(=O)Nc1ccc(C(=O)OCC[N+](C)(CC)CC)cc1"
label = 1

[[record]]
compound = "Nc1ccc(S(N)(=O)=O)cc1"
label = 0

[[record]]
compound = "CCCc1cc(=O)[nH]c(=S)[nH]1"
label = 0

[[record]]
compound = "CC(S)C(=O)NCC(=O)O (configuration not stated)"
label = 0

[[record]]
compound = "CC[C@]1(O)C[C@H]2CN(CCc3c([nH]c4ccccc34)[C@@](C(=O)OC)(c3cc4c(cc3OC)N(C=O)[C@H]3[C@@](O)(C(=O)OC)[C@H](OC(C)=O)[C@]5(CC)C=CCN6CC[C@]43[C@@H]65)C2)C1"
label = 1


----------
# System: astro
# ASSAY_EXPLANATION: Drug repurposing screens with cells derived from glioblastoma tumor samples (AID 1345199); further: nearly all actives have a fitted effect of over 40% in size
# STUDY_CONDITIONS: viability, ATP luminescence, 48 h; series mostly up to 45.9 µM
Records with an inconclusive call do not appear. Activity calls are given as the source filed them. The call rests on the fitted dose curve; in most records, active means well fitted inhibition curve with a large enough effect; inconclusive means small, poorly fitted or top-dose-only effect; inactive means flat fitted curve, though single readings scatter.
Outcome codes: active, inactive

[[record]]
compound = "COc1c(O)cc2c(c1O)[C@@H]1O[C@H](CO)[C@@H](O)[C@H](O)[C@H]1OC2=O"
measured_target = "astro"
label = "inactive"

[[record]]
compound = "O=C1c2ccccc2-c2n[nH]c3cccc1c23"
measured_target = "astro"
label = "active"

[[record]]
compound = "CCCCC(CC)COC(=O)C(C#N)=C(c1ccccc1)c1ccccc1 (stereo not given)"
measured_target = "astro"
label = "inactive"

[[record]]
compound = "N=C(N)c1ccc2cc(OC(=O)c3ccc(N=C(N)N)cc3)ccc2c1"
measured_target = "astro"
label = "inactive"

[[record]]
compound = "NC(=O)Cc1cccc(C(=O)c2ccccc2)c1N"
measured_target = "astro"
label = "inactive"

[[record]]
compound = "O=C(O)c1cc(=O)c2c(OCC(O)COc3cccc4oc(C(=O)O)cc(=O)c34)cccc2o1"
measured_target = "astro"
label = "inactive"

[[record]]
compound = "COc1cc(OC)c(C(=O)CCCN2CCCC2)c(OC)c1"
measured_target = "astro"
label = "inactive"

[[record]]
compound = "CCC[C@@H]1C[C@@H](C(=O)N[C@@H]([C@H]2O[C@H](SC)[C@H](O)[C@@H](O)[C@H]2O)[C@@H](C)O)N(C)C1"
measured_target = "astro"
label = "inactive"

[[record]]
compound = "COCCCOc1ccnc(CS(=O)c2nc3ccccc3[nH]2)c1C (stereo not given)"
measured_target = "astro"
label = "active"

[[record]]
compound = "CN1C(C(=O)Nc2ccccn2)=C(O)c2sccc2S1(=O)=O"
measured_target = "astro"
label = "inactive"

